All figures here come from ChEMBL document CHEMBL5252593.

Test system: MDA-MB-231
Assay: Antiproliferative activity against human MDA-MB-231 cells assessed as inhibition of cell growth by MTT assay
Assay type: functional, cell-based
pIC50: −log10 of the molar value.
resultType: pIC50

- structureSmiles: "O=C1C(=O)N(CCn2cc(COCCOc3ccc(/C(=C(/CCCl)c4ccccc4)c4ccccc4)cc3)nn2)c2c(Br)cc(Br)cc21"
  targetOfAssay: "MDA-MB-231"
  assayResult: 4.31

* * *

Tested on: MDA-MB-231
Assay: Antiproliferative activity against human MDA-MB-231 cells assessed as inhibition of cell proliferation incubated for 24 hrs by MTT assay
Assay type: functional, cell-based
Conditions: MDA-MB-231, 24 h

- structureSmiles: "CCOC(=O)[C@H]1Cc2c([nH]c3ccccc23)CN1Cc1cn(CCCN2C(=O)C(=O)c3ccccc32)nn1"
  IC50: "> 100 µM"
